- test: recombinant barcode read abundance after kanamycin selection (control-corrected) (log10(CPM+1)); higher = more efficient recombination; sequences stand for … in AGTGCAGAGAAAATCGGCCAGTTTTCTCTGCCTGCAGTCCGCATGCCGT…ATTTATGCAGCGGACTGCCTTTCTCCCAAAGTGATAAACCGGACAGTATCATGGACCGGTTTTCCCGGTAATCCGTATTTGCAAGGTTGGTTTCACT; site = the 11-nt target
Field: recombinant barcode read abundance (log10). Provide a value for each of the sequences that follow.
Answers are plain numbers.

Previously resolved entries follow.
sequence.entry	measured.value
GGTGCCCCTTGGGTTCTAACCTGTTGCCGCA [GGTGCCCCTCG_LTGcore_CT_RTGcore_TG] (site GGTGCCCCTCG) (LTG core: CT, RTG core: TG)	0.0728
CATATTACATGGGTTCTAACCTGTTGCCTAG [CATATTACTAG_LTGcore_CA_RTGcore_CT] (site CATATTACTAG) (LTG core: CA, RTG core: CT)	0.126
TCTACCCCTTGGGTTCTAACCTGTTGCTGTC [TCTACCCCTCA_LTGcore_CT_RTGcore_GA] (site TCTACCCCTCA) (LTG core: CT, RTG core: GA)	0.0329

Task item: Bench note: what recombinant barcode read abundance (log10) did TAGAGGGGGTGGGTTCTAACCTGTTGCGGCC [TAGAGGGCTCC_LTGcore_GG_RTGcore_GG] (site TAGAGGGCTCC) (LTG core: GG, RTG core: GG) show?
Reply: 0.114
